pIC50: −log10 of the molar value. Where a SMILES comes first, the peptide text is derived from it. [ ]: non-standard residue; d: D form. pY = N[C@@H](Cc1ccc(OP(=O)(O)O)cc1)C(=O)O
// pIC50 collected for Grb2 (Homo sapiens, UniProt P62993)
metric.name: pIC50

molecule=C[C@@](Cc1ccc(C(=O)O)cc1)(NC(=O)[C@H](Cc1ccc(OP(=O)(O)O)cc1)NC(=O)OCc1cccc(N)c1)C(=O)N[C@@H](CC(N)=O)C(N)=O endpoint_value=6.82
molecule="CC(Cc1ccc(C(F)(F)P(=O)(O)O)cc1)(NC(=O)[C@H](Cc1ccc(OP(=O)(O)O)cc1)NC(=O)OCc1cccc(N)c1)C(=O)N[C@@H](CC(N)=O)C(N)=O (stereo partly shown)" endpoint_value=7.19
molecule="C[C@@](Cc1ccc(O)cc1)(NC(=O)[C@H](Cc1ccc(OP(=O)(O)O)cc1)NC(=O)OCc1cccc(N)c1)C(=O)N[C@@H](CC(N)=O)C(N)=O [mAZ-pTyr-(αMe)Tyr-Asn-NH2, mAZ-pTyr-(α-Me)Tyr-Asn-NH2, reference compound]" endpoint_value=5.96
molecule="CC(C)[C@H](NC(=O)[C@H](CC(N)=O)NC(=O)[C@@H](NC(=O)[C@H](Cc1ccc(OP(=O)(O)O)cc1)NC(=O)[C@H](CO)NC(=O)[C@@H]1CCCN1)C(C)C)C(=O)N[C@@H](CCC(N)=O)C(=O)N[C@@H](CC(N)=O)C(=O)O [PSpYVNVQN (Shc 317), reference compound] (H-PS[pY]VNVQN-OH)" endpoint_value=7.15

---

Recorded measurements of IC50, one per entry
Molecular target: Grb2 (Homo sapiens, UniProt P62993)
Sequence (P62993 whole entry, species assumed): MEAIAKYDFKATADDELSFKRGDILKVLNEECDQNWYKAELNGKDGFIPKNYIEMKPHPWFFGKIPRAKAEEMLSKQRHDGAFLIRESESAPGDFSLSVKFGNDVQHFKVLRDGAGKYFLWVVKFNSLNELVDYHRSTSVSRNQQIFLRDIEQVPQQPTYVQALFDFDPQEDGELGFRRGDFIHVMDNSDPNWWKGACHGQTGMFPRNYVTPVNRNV
metric.name: IC50 (nM)

molecule="NC(=O)C[C@H](NC(=O)[C@H](Cc1ccc(OP(=O)(O)O)cc1)NC(=O)[C@H](Cc1ccc(OP(=O)(O)O)cc1)NC(=O)OCc1cccc(N)c1)C(N)=O [mAZ-pTyr-pTyr-Asn-NH2, reference compound]" system_tested="Grb2 (Homo sapiens, UniProt P62993)" metric_name=IC50 endpoint_value=235
molecule=C[C@@](Cc1ccc(CC(=O)O)cc1)(NC(=O)[C@H](Cc1ccc(OP(=O)(O)O)cc1)NC(=O)OCc1cccc(N)c1)C(=O)N[C@@H](CC(N)=O)C(N)=O system_tested="Grb2 (Homo sapiens, UniProt P62993)" metric_name=IC50 endpoint_value=198
molecule=C[C@@](Cc1ccc(OP(=O)(O)O)cc1)(NC(=O)[C@H](Cc1ccc(OP(=O)(O)O)cc1)NC(=O)OCc1cccc(N)c1)C(=O)N[C@@H](CC(N)=O)C(N)=O system_tested="Grb2 (Homo sapiens, UniProt P62993)" metric_name=IC50 endpoint_value=11
molecule="NC(=O)C[C@H](NC(=O)C1(NC(=O)[C@H](Cc2ccc(OP(=O)(O)O)cc2)NC(=O)OCc2cccc(N)c2)CCCCC1)C(N)=O [mAZ-pTyr-Acac-Asn-NH2, reference compound]" system_tested="Grb2 (Homo sapiens, UniProt P62993)" metric_name=IC50 endpoint_value=120
molecule="NC(=O)C[C@H](NC(=O)[C@H](Cc1ccc(O)cc1)NC(=O)[C@H](Cc1ccc(OP(=O)(O)O)cc1)NC(=O)OCc1cccc(N)c1)C(N)=O [mAZ-pTyr-Tyr-Asn-NH2, reference compound]" system_tested="Grb2 (Homo sapiens, UniProt P62993)" metric_name=IC50 endpoint_value=497
molecule=C[C@@](Cc1ccc(OP(=O)(O)O)cc1)(NC(=O)[C@H](Cc1ccc(CP(=O)(O)O)cc1)NC(=O)OCc1cccc(N)c1)C(=O)N[C@@H](CC(N)=O)C(N)=O system_tested="Grb2 (Homo sapiens, UniProt P62993)" metric_name=IC50 endpoint_value=42
molecule="CC(Cc1ccc(CP(=O)(O)O)cc1)(NC(=O)[C@H](Cc1ccc(OP(=O)(O)O)cc1)NC(=O)OCc1cccc(N)c1)C(=O)N[C@@H](CC(N)=O)C(N)=O (stereo partly shown)" system_tested="Grb2 (Homo sapiens, UniProt P62993)" metric_name=IC50 endpoint_value=266
